assay: Film formation test; format: physicochemical; conditions: 15% by weight solution in water, dried at 45° C. for 4 hours, assessed visually
Metric name: Clear film

Below are worked cases with known answers.
{"Item smiles": "OC[C@@H](O)[C@@H](O)[C@H](O)[C@@H](O)CO", "Recorded measurement": "Yes"}
{"Item smiles": "OC[C@@H](O)[C@@H](O[C@@H]1O[C@H](CO)[C@H](O)[C@H](O)[C@H]1O)[C@H](O)[C@@H](O)CO", "Recorded measurement": "Yes"}
{"Item smiles": "OC[C@@H](O)[C@@H](O)CO", "Recorded measurement": "No"}
{"Item smiles": "OC[C@@H](O)[C@H](O)[C@@H](O)CO", "Recorded measurement": "No"}

// recorded Clear film for OC[C@@H](O)[C@@H](O)[C@H](O)[C@H](O)CO : No

// recorded Clear film for OC[C@@H](O)[C@@H](O[C@H]1O[C@H](CO)[C@@H](O)[C@H](O)[C@H]1O)[C@H](O)[C@@H](O)CO : Yes
